Target: Fructose-bisphosphate aldolase (Giardia intestinalis (strain ATCC 50803 / WB clone C6))
Test: qHTS Assay for Inhibitors of Fructose-1,6-bisphosphate Aldolase from Giardia Lamblia; note: nearly all actives have a fitted effect of over 55% in size
Conditions: purified Giardia FBPA; series mostly up to 59.6 µM
Out of some 290,000 compounds screened, about 2,100 (0.72%) were called active. Inconclusive results (about 4%) are left out. Calls come from the whole dose curve; as a rule, active = well fitted inhibition curve with a large enough effect; inconclusive = small, poorly fitted or top-dose-only effect, or effect the other way; inactive = flat fitted curve, though single readings scatter. The sample holds actives, similar compounds and a random draw of the others, so the mix is not that of the screen.
Valid outcomes are listed here; reply with one: YES (active), NO (inactive)

Sample answers from the record:
molecule	targetSystem	classLabel
COc1ccc(Cl)cc1NC(=O)c1cccc(N2C(=O)C3CC=CCC3C2=O)c1 (stereo not given)	Fructose-bisphosphate aldolase (Giardia intestinalis (strain ATCC 50803 / WB clone C6))	NO
C=CCNC(=S)N/N=C/c1ccc(C)s1	Fructose-bisphosphate aldolase (Giardia intestinalis (strain ATCC 50803 / WB clone C6))	NO
COCn1c(C(O)c2ccccc2)cc2ccccc21 (stereo not given)	Fructose-bisphosphate aldolase (Giardia intestinalis (strain ATCC 50803 / WB clone C6))	NO
Oc1cc(O)c2c(c1)OC(c1ccc(O)c(O)c1)C(O)C2 (stereo not given)	Fructose-bisphosphate aldolase (Giardia intestinalis (strain ATCC 50803 / WB clone C6))	YES
O=C(Nc1ccc(N2CCOCC2)c(Cl)c1)c1ccc(S(=O)(=O)N2CCOCC2)cc1	Fructose-bisphosphate aldolase (Giardia intestinalis (strain ATCC 50803 / WB clone C6))	NO
COc1ccc(C2Oc3c(I)c(OC)cc(OC)c3CC2O)cc1OC (stereo not given)	Fructose-bisphosphate aldolase (Giardia intestinalis (strain ATCC 50803 / WB clone C6))	NO

With those in mind, consider the next molecule.
query: Which outcome did this test record for the molecule Cc1ccnc(NS(=O)(=O)c2ccc(NC(=O)c3ccc(S(=O)(=O)N4CCOCC4)cc3)cc2)n1 ?
result: NO

----------
Target: Fructose-bisphosphate aldolase (Giardia intestinalis (strain ATCC 50803 / WB clone C6)) (UniProt A8B2U2)
Sequence (A8B2U2 whole entry, looked up): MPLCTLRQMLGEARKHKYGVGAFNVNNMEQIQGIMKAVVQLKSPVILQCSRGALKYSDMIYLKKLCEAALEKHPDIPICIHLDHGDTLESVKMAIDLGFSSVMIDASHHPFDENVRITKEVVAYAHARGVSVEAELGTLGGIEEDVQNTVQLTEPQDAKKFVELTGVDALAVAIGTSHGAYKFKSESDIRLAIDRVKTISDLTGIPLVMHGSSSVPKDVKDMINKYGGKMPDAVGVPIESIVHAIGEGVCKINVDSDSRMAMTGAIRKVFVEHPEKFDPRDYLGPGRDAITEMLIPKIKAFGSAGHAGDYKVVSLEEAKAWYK
Assay: qHTS Assay for Inhibitors of Fructose-1,6-bisphosphate Aldolase from Giardia Lamblia; note: nearly all actives have a fitted effect of over 55% in size
Conditions: purified Giardia FBPA; series mostly up to 59.6 µM
About 2,100 (0.72%) of roughly 290,000 compounds were called active. Not shown: some 4% with an inconclusive outcome. The call rests on the fitted dose curve; in most records, active means well fitted inhibition curve with a large enough effect; inconclusive means small, poorly fitted or top-dose-only effect, or effect the other way; inactive means flat fitted curve, though single readings scatter. What follows is part of a selection rich in actives, with near analogues and random picks from the rest.
Valid outcomes are listed here; reply with one: active, inactive

Sample answers from the record:
molecule	classLabel
CC/C(=N\NC(=O)c1c(C)nc2ccccn12)c1ccc(Cl)cc1	inactive
Cc1ccccc1-n1nc(C)c2cc(C(=O)NC3CC3)sc21	inactive
O=C1CSC(=S)N1c1ccc(O)cc1	inactive
C=CCSc1nc2c(c(=O)[nH]c(=O)n2C)n1Cc1ccccc1	inactive
Brc1ccccc1C1N=C(c2ccccc2)NO1 (stereo not drawn)	inactive
Cc1cc(F)ccc1NC(=S)NCCc1ccccc1	inactive
O=C(N/C(=C/c1ccc(Cl)cc1)C(=O)N1CCCCC1)c1ccco1	inactive
COc1ccc(CNc2nc3c(c(=O)[nH]c(=O)n3C)n2Cc2ccccc2)cc1	inactive
COC(=O)c1cccc(N2C(=O)C3C4C=CC(CC4)C3C2=O)c1 (stereo not drawn)	inactive
CCNC(=O)CC1C(=O)N(c2ccc(OC)cc2)C(=O)N1CCOC (stereo not drawn)	inactive

query: Which outcome did this test record for the molecule CC(C)CCNC(=O)c1ccc2c(Cl)c3c(nc2c1)CCC3 ?
result: inactive

query: Which outcome did this test record for the molecule COc1ccc(NC(=O)c2nc(-n3nc(C)cc3C)ccc2Cl)cc1Cl ?
result: inactive

query: Which outcome did this test record for the molecule Cc1ccccc1-n1nc(C)c2c1N=C1C(Cl)=CC(Cl)=CN1C2c1ccc(C(=O)O)cc1 (stereo not drawn) ?
result: active

query: Which outcome did this test record for the molecule O=c1oc2ccccc2c(CNc2ccccc2)c1[N+](=O)[O-] ?
result: inactive

query: Which outcome did this test record for the molecule CC(=O)c1ccc(N2CCN(S(=O)(=O)c3ccc4c(c3)CC(=O)N4C)CC2)cc1 ?
result: inactive

query: Which outcome did this test record for the molecule CCc1ccc(NC(=O)C(=O)NNC(=O)c2cccs2)cc1 ?
result: inactive

query: Which outcome did this test record for the molecule COc1ccc(Nc2ncnc3ccc(Br)cc23)c(OC)c1 ?
result: inactive

query: Which outcome did this test record for the molecule Cc1cc(C)n(-c2ccc3nncn3n2)n1 ?
result: inactive

query: Which outcome did this test record for the molecule CC(C)c1ccc(S(=O)(=O)N2CCC3(CC2)OCCO3)cc1 ?
result: inactive

query: Which outcome did this test record for the molecule Cc1ccc(S(=O)(=O)N(CCCN(C)C)Cc2ccc3c(c2)OCO3)cc1 ?
result: inactive

query: Which outcome did this test record for the molecule CCN(CC)S(=O)(=O)c1ccc(-c2cn3ccc(C)cc3n2)cc1 ?
result: inactive

query: Which outcome did this test record for the molecule Cc1ccc(CNC(=O)C2CCCN2S(=O)(=O)c2ccc3c(c2)C(C)(C)C(=O)N3C)cc1 (stereo not drawn) ?
result: inactive

query: Which outcome did this test record for the molecule Cc1cnc(NC(=O)c2ccc(Cl)nc2)s1 ?
result: inactive

----------
Biological target: Fructose-bisphosphate aldolase (Giardia intestinalis (strain ATCC 50803 / WB clone C6)) (UniProt A8B2U2)
Assay: qHTS Assay for Inhibitors of Fructose-1,6-bisphosphate Aldolase from Giardia Lamblia; note: nearly all actives have a fitted effect of over 55% in size
Details: purified Giardia FBPA; series mostly up to 59.6 µM
From the text: Assay Provider: Osnat Herzberg, University of Maryland The objective of this project is to obtain compounds that inhibit Giardia lamblia growth. […] A glyceraldehyde-3-phosphate dehydrogenase/triose phosphate isomerase/NAD/arsenate coupled assay was adapted to the 1536-well HTP format for use in the primary screen. This was done by coupling it to a diaphorase/resazurin/resorufin reaction that can be monitored by fluorescence (excitation, 544 nm; emission, 590 nm). […]
Among all 290,000 compounds or so, about 2,100 (0.72%) were called active. About 4% were inconclusive and are not listed. Calls come from the whole dose curve; as a rule, active = well fitted inhibition curve with a large enough effect; inconclusive = small, poorly fitted or top-dose-only effect, or effect the other way; inactive = flat fitted curve, though single readings scatter. This excerpt belongs to a sample that is enriched for actives.
Valid outcomes are listed here; reply with one: YES for active, NO for inactive

Sample answers from the record:
molecule	classLabel
CC(=O)NCCC(=O)Nc1cc(S(=O)(=O)N2CCOCC2)ccc1N1CCOCC1	NO
Cc1cnc(NC(=O)CSc2nnc(-c3ccccc3)n2Cc2ccccc2)s1	NO
O=c1o[nH]c(-c2ccccc2)c1N=Nc1c(F)cccc1Cl	NO
Cc1cc(C)c(C#N)c(N2CCC(C(N)=O)CC2)n1	NO
Cc1ccc(SCCSc2ncccn2)cc1	NO

query: Which outcome did this test record for the molecule O=C(CSc1cccc[n+]1[O-])c1ccc(-c2ccccc2)cc1 ?
result: YES

----------
Molecular target: Fructose-bisphosphate aldolase (Giardia intestinalis (strain ATCC 50803 / WB clone C6))
Assay: qHTS Assay for Inhibitors of Fructose-1,6-bisphosphate Aldolase from Giardia Lamblia; note: nearly all actives have a fitted effect of over 55% in size
Conditions: purified Giardia FBPA; series mostly up to 59.6 µM
Screen size: about 290,000 compounds; about 2,100 (0.72%) were called active. Inconclusive results (about 4%) are left out. Calls come from the whole dose curve; as a rule, active = well fitted inhibition curve with a large enough effect; inconclusive = small, poorly fitted or top-dose-only effect, or effect the other way; inactive = flat fitted curve, though single readings scatter. This excerpt belongs to a sample that is enriched for actives.
Valid outcomes are listed here; reply with one: 1 = active, -1 = inactive

Sample answers from the record:
compound	targetSystem	classLabel
CCN(CC)c1ccc(/C=N/Nc2nc(C)cc(=O)[nH]2)cc1	Fructose-bisphosphate aldolase (Giardia intestinalis (strain ATCC 50803 / WB clone C6))	-1
CCN(CC)c1ccc2oc(=O)c(C)nc2c1	Fructose-bisphosphate aldolase (Giardia intestinalis (strain ATCC 50803 / WB clone C6))	1
COc1ccc(C(=O)NC(C)CCc2ccccc2)c(OC)c1 (stereo unspecified)	Fructose-bisphosphate aldolase (Giardia intestinalis (strain ATCC 50803 / WB clone C6))	-1

query: Which outcome did this test record for the compound COc1ccccc1N(CC(=O)N/N=C(\C)c1ccccc1O)S(=O)(=O)c1ccc(C)cc1 ?
result: -1

query: Which outcome did this test record for the compound O=C(O)CCCn1cc(NC(=O)COc2cccc(Cl)c2)cn1 ?
result: -1

query: Which outcome did this test record for the compound CCN(CC)c1ccc(/C=N/Nc2nc(C)cc(C)n2)c(O)c1 ?
result: -1

----------
Target: Fructose-bisphosphate aldolase (Giardia intestinalis (strain ATCC 50803 / WB clone C6))
Assay: qHTS Assay for Inhibitors of Fructose-1,6-bisphosphate Aldolase from Giardia Lamblia; note: nearly all actives have a fitted effect of over 55% in size
Details: purified Giardia FBPA; series mostly up to 59.6 µM
The campaign covered roughly 290,000 compounds. About 2,100 (0.72%) were called active. Inconclusive results (about 4%) are left out. Calls come from the whole dose curve; as a rule, active = well fitted inhibition curve with a large enough effect; inconclusive = small, poorly fitted or top-dose-only effect, or effect the other way; inactive = flat fitted curve, though single readings scatter. What follows is part of a selection rich in actives, with near analogues and random picks from the rest.
Valid outcomes are listed here; reply with one: active, inactive

Sample answers from the record:
compound	classLabel
CCOc1cccc(NC(=O)C2CCCN(S(=O)(=O)c3ccc(OC)cc3)C2)c1 (centres undefined)	inactive
Brc1ccc(OCCn2ccnc2)cc1	inactive
CCNC(=S)N(CCN(CC)CC)Cc1cc2cc3c(cc2[nH]c1=O)OCCO3	inactive
CC(C)CCn1c(=O)c2c(nc3n2CCCN3Cc2ccccc2)n(C)c1=O	inactive
COc1ccc(C(=O)NCCSc2ccccc2C)cc1	inactive

query: Which outcome did this test record for the compound O=C(Nc1ccc(O)cc1)c1ccc(NC(=O)c2ccco2)cc1 ?
result: inactive

query: Which outcome did this test record for the compound CC(CN1CCOCC1)OC(=O)c1ccc(C(C)(C)C)cc1 (centres undefined) ?
result: inactive

query: Which outcome did this test record for the compound CCS(=O)(=O)Nc1ccc(C(=O)NCCSc2ccccc2)cc1 ?
result: inactive

query: Which outcome did this test record for the compound Cc1nc2cc(C(F)(F)F)ccc2n1CCNc1nc(-c2cc(Cl)c(N)c(Cl)c2)cs1 ?
result: inactive

query: Which outcome did this test record for the compound CC(=O)Nc1cccc(Nc2nc(-c3cccs3)nc3ccccc23)c1 ?
result: inactive
